# testSummary: TOX21_p53_BLA_p4_viability: Viability Assessment in the Tox21 HCT-116 p53 Agonism Beta-lactamase Assay, Phase 4 (AID 2283597);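 also: hits lower the luminescence signal meaning cytotoxicity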
Inconclusive results are not listed. Active and inactive are the calls of the source. The calls were made as follows: active = hit-call score of the fitted dose curve at least 0.9, where 1 is the maximum; inconclusive = response in the unintended direction; inactive = score below 0.9.
Use one of these outcomes when replying: YES for active, NO for inactive

Solved entries (count: 5):
molecule: CN(C)CC/C=C1\c2ccccc2Sc2ccc(Cl)cc21
classLabel: YES
//
molecule: Cc1nc2ccccn2c(=O)c1CCN1CCC(C(=O)c2ccc(F)cc2)CC1
classLabel: NO
//
molecule: O=C(O)C(S)C(S)C(=O)O (centres undefined)
classLabel: NO
//
molecule: CC(C)(C)CC(C)(C)c1ccccc1O
classLabel: YES
//
molecule: O=C(O)c1cccc(-c2noc(-c3ccccc3F)n2)c1
classLabel: YES

Enquiry: How was O=C(O)c1ccccc1[N+](=O)[O-] classified in this test?
Return: NO

Enquiry: Hi, sorry to bother you, what did the test record for CC(=O)OCC(=O)[C@@]1(O)[C@H](OC(C)=O)C[C@H]2[C@@H]3CCC4=CC(=O)C=C[C@]4(C)[C@@]3(F)[C@@H](O)C[C@@]21C ?
Return: NO

Enquiry: # fetch the recorded call for Cc1c(C)c2c(c(C)c1O)CC[C@@](C)(CCC[C@H](C)CCC[C@H](C)CCCC(C)C)O2 here
Return: NO

Enquiry: So what was the verdict on C=C(C)C(=O)OCCNC(C)(C)C in this test?
Return: NO

Enquiry: Hi, do you know how CCCCCCCCS(=O)C(C)Cc1ccc2c(c1)OCO2 (centres undefined) came out in this test?
Return: YES

Enquiry: Each molecule tested received a call. Report the one for NS(=O)(=O)c1ccc(NC(=O)CCC(=O)O)cc1 .
Return: NO

Enquiry: Recorded test outcome, item Cc1ccc(NC(=O)N(C)C)cc1NC(=O)N(C)C
Return: NO

Enquiry: Hey, what did the test say about CC(=O)SC[C@@H](Cc1ccccc1)C(=O)NCC(=O)OCc1ccccc1 ?
Return: NO
